system: Aeromonas 2 (Aeromonas sobria); test: relative growth (AUC of 72 h growth curve relative to DMSO control, dAUC) (ratio); higher = more growth (less inhibition), active = hit call of the paper; details: 20 µM

{"MOLECULE": "CCCCC(C#N)(Cn1cncn1)c1ccc(Cl)cc1 (stereo unspecified)", "relative growth": 0.901}
{"MOLECULE": "CC(Oc1ccc(Oc2ncc(C(F)(F)F)cc2Cl)cc1)C(=O)O (stereo unspecified)", "relative growth": 0.974}
{"MOLECULE": "CC1(C)C(C(=O)OC(C#N)c2cccc(Oc3ccccc3)c2)C1(C)C (stereo unspecified)", "relative growth": 0.989}
{"MOLECULE": "CCCC1COC(Cn2cncn2)(c2ccc(Cl)cc2Cl)O1 (stereo unspecified)", "relative growth": 0.949}
{"MOLECULE": "Nc1c(Cl)c(F)nc(OCC(=O)O)c1Cl", "relative growth": 1}
{"MOLECULE": "CC(C)N1C(=O)c2ccccc2NS1(=O)=O", "relative growth": 0.994}

---

tested on: Pseudomonas 5 (Pseudomonas baetica); assay: relative growth (AUC of 72 h growth curve relative to DMSO control, dAUC) (ratio); higher = more growth (less inhibition), active = hit call of the paper; settings: 20 µM
Param threshold (1) applies to relative growth; output 1 (yes) when value >= threshold, 0 (no) when value < threshold.

{"COMPOUND": "C/C(=N\\C#N)N(C)Cc1ccc(Cl)nc1", "CLASS ASSIGNMENT": "1 (yes)"}
{"COMPOUND": "O=C(Nc1ccc(F)cc1F)c1cccnc1Oc1cccc(C(F)(F)F)c1", "CLASS ASSIGNMENT": "1 (yes)"}
{"COMPOUND": "O=C1C2(Cl)C3(Cl)C4(Cl)C(Cl)(Cl)C5(Cl)C3(Cl)C1(Cl)C5(Cl)C24Cl (centres undefined)", "CLASS ASSIGNMENT": "1 (yes)"}
{"COMPOUND": "COc1ncc(F)c2nc(S(=O)(=O)Nc3c(F)cccc3F)nn12", "CLASS ASSIGNMENT": "0 (no)"}
{"COMPOUND": "COP(=S)(OC)Oc1nc(Cl)c(Cl)cc1Cl", "CLASS ASSIGNMENT": "1 (yes)"}
{"COMPOUND": "CCCN(CCC)C(=O)SCc1ccccc1", "CLASS ASSIGNMENT": "1 (yes)"}
{"COMPOUND": "CCC(C)c1ccccc1OC(=O)NC (centres undefined)", "CLASS ASSIGNMENT": "1 (yes)"}
{"COMPOUND": "CC(C)N1C(=O)N(c2ccccc2)CS/C1=N\\C(C)(C)C", "CLASS ASSIGNMENT": "1 (yes)"}
{"COMPOUND": "Cc1cc(C(F)(C(F)(F)F)C(F)(F)F)ccc1NC(=O)c1cccc(I)c1C(=O)NC(C)(C)CS(C)(=O)=O", "CLASS ASSIGNMENT": "0 (no)"}
{"COMPOUND": "O=C(NC(=O)c1c(F)cccc1F)Nc1ccc(OC(F)(F)C(F)OC(F)(F)F)c(Cl)c1 (centres undefined)", "CLASS ASSIGNMENT": "0 (no)"}
{"COMPOUND": "CC1(C)CON(Cc2ccccc2Cl)C1=O", "CLASS ASSIGNMENT": "1 (yes)"}
{"COMPOUND": "CNC(=O)c1cc(C#N)cc(C)c1NC(=O)c1cc(Br)nn1-c1ncccc1Cl", "CLASS ASSIGNMENT": "1 (yes)"}
{"COMPOUND": "CNC(=O)/C=C(\\C)OP(=O)(OC)OC", "CLASS ASSIGNMENT": "0 (no)"}

---

test system: Pseudomonas 4 (Pseudomonas peli); experiment: relative growth (AUC of 72 h growth curve relative to DMSO control, dAUC) (ratio); higher = more growth (less inhibition), active = hit call of the paper; settings: 20 µM;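 active = growth AUC significantly below the DMSO wells by Dunnett test; inactive = the rest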
Outcomes: active, inactive

{"MOLECULE": "COC(=O)Nc1nc2ccccc2[nH]1", "CLASS ASSIGNMENT": "inactive"}
{"MOLECULE": "CC(C)(C)C(O)(CCc1ccc(Cl)cc1)Cn1cncn1 (stereo not given)", "CLASS ASSIGNMENT": "inactive"}
{"MOLECULE": "CO/C=C(/C(=O)OC)c1ccccc1COc1cccc(C(F)(F)F)n1", "CLASS ASSIGNMENT": "inactive"}
{"MOLECULE": "COP(=O)(OC)OC=C(Cl)Cl", "CLASS ASSIGNMENT": "inactive"}
{"MOLECULE": "CCCC(Cn1cncn1)c1ccc(Cl)cc1Cl (stereo not given)", "CLASS ASSIGNMENT": "inactive"}
{"MOLECULE": "COc1ccc(-c2ccccc2)cc1NNC(=O)OC(C)C", "CLASS ASSIGNMENT": "inactive"}
{"MOLECULE": "CC(COc1ccc(Oc2ccccc2)cc1)Oc1ccccn1 (stereo not given)", "CLASS ASSIGNMENT": "inactive"}
{"MOLECULE": "CC(C)N1C(=O)N(c2ccccc2)CS/C1=N\\C(C)(C)C", "CLASS ASSIGNMENT": "inactive"}
{"MOLECULE": "N#Cc1sc2c(=O)c3ccccc3c(=O)c=2sc1C#N", "CLASS ASSIGNMENT": "inactive"}
{"MOLECULE": "C[N+](C)(C)CCCl", "CLASS ASSIGNMENT": "inactive"}
{"MOLECULE": "CNC(=O)c1cc(C#N)cc(C)c1NC(=O)c1cc(Br)nn1-c1ncccc1Cl", "CLASS ASSIGNMENT": "inactive"}
{"MOLECULE": "CCOc1cc(Oc2ccc(C(F)(F)F)cc2Cl)ccc1[N+](=O)[O-]", "CLASS ASSIGNMENT": "inactive"}
{"MOLECULE": "Cc1cc(C(F)(C(F)(F)F)C(F)(F)F)ccc1NC(=O)c1cccc(I)c1C(=O)NC(C)(C)CS(C)(=O)=O", "CLASS ASSIGNMENT": "inactive"}
{"MOLECULE": "CC1=NNC(=O)N(/N=C/c2cccnc2)C1", "CLASS ASSIGNMENT": "inactive"}
{"MOLECULE": "CNC(=O)Oc1cccc2ccccc12", "CLASS ASSIGNMENT": "inactive"}
{"MOLECULE": "CC1(C)C(C=C(Cl)Cl)C1C(=O)OC(C#N)c1cccc(Oc2ccccc2)c1 (stereo not given)", "CLASS ASSIGNMENT": "inactive"}
{"MOLECULE": "COC(=O)N(OC)c1ccccc1COc1ccn(-c2ccc(Cl)cc2)n1", "CLASS ASSIGNMENT": "inactive"}
{"MOLECULE": "CS(=O)(=O)c1cc(C(F)(F)F)ccc1C(=O)c1cnoc1C1CC1", "CLASS ASSIGNMENT": "inactive"}
{"MOLECULE": "CCOCN(C(=O)CCl)c1c(C)cccc1CC", "CLASS ASSIGNMENT": "inactive"}
{"MOLECULE": "Cc1nc(N(C)C)nc(OC(=O)N(C)C)c1C", "CLASS ASSIGNMENT": "inactive"}
{"MOLECULE": "CCOC(=O)OC1=C(c2cc(C)ccc2C)C(=O)N[C@]12CC[C@@H](OC)CC2", "CLASS ASSIGNMENT": "inactive"}
{"MOLECULE": "O=C(O)CNCP(=O)(O)O", "CLASS ASSIGNMENT": "inactive"}
{"MOLECULE": "O=C1C2CC=CCC2C(=O)N1SC(Cl)(Cl)Cl (stereo not given)", "CLASS ASSIGNMENT": "active"}
{"MOLECULE": "COCC(C)N(C(=O)CCl)c1c(C)csc1C (stereo not given)", "CLASS ASSIGNMENT": "inactive"}
{"MOLECULE": "N#Cc1c[nH]cc1-c1cccc2c1OC(F)(F)O2", "CLASS ASSIGNMENT": "inactive"}

---

system: Arthrobacter 3 (Arthrobacter sp.); test: relative growth (AUC of 72 h growth curve relative to DMSO control, dAUC) (ratio); higher = more growth (less inhibition), active = hit call of the paper; details: 20 µM
Recorded relative growth, one value per entry.

{"COMPOUND": "CCc1cc(C)cc(CC)c1-c1c(OC(=O)C(C)(C)C)n2n(c1=O)CCOCC2", "relative growth": "0.917 (inactive)"}
{"COMPOUND": "CCCCOC(=O)[C@H](C)Oc1ccc(Oc2ccc(C#N)cc2F)cc1", "relative growth": "0.882 (inactive)"}
{"COMPOUND": "COP(=O)(NC(C)=O)SC (configuration not stated)", "relative growth": "1.05 (inactive)"}
{"COMPOUND": "CCOCN(C(=O)CCl)c1c(C)cccc1CC", "relative growth": "1.02 (inactive)"}
{"COMPOUND": "COCC(=O)N(c1c(C)cccc1C)C(C)C(=O)OC (configuration not stated)", "relative growth": "0.994 (inactive)"}
{"COMPOUND": "CC(C)(C)C(O)(CCc1ccc(Cl)cc1)Cn1cncn1 (configuration not stated)", "relative growth": "0.39 (active)"}
{"COMPOUND": "CCCCCCCCCCCCNC(=N)N", "relative growth": "0.0063 (active)"}
